- assay explanation: MRC5 TOX 7 d
- Assay type: cell-based
- run conditions: human
measurement kind: CC50 at 7 d

// worked examples, CC50 at 7 d included
Ask: Identify measured CC50 at 7 d corresponding to `CN(C(N)=O)c1ccc2c(c1)CN(c1ncc(Cc3ccc(-n4cccn4)cc3)s1)CC2`
Result: 3.63 µM

Ask: // Input: `CN(C(N)=O)c1ccc2c(c1)CN(c1ncc(Cc3ccc(N4CCOCC4)cc3)s1)CC2` . Output its CC50 at 7 d only.
Result: > 50 µM

Ask: Consider the compound `NC(=O)Nc1cnc2c(c1)CN(c1ncc(Cc3ccc(-n4cccn4)cc3)s1)CC2` . State its measured CC50 at 7 d.
Result: > 15.8 µM

Ask: Return reported CC50 at 7 d. Input compound: `NC(=O)Nc1ccc2c(c1)CN(c1ncc(Cc3ccc(N4CCOCC4)cc3)s1)CC2`
Result: > 10.4 µM

---
Ask: Assign CC50 at 7 d to the following record: `CS(=O)(=O)c1ccc(Cc2cnc(N3CCc4ccc(NC(N)=O)cc4C3)s2)cc1`
Result: > 15.8 µM

Ask: Specify measured CC50 at 7 d for `CN(C(N)=O)c1ccc2c(c1)CN(c1ncc(Cc3ccc(OCC4CC4)cc3)s1)CC2` .
Result: 16.9 µM

Ask: Give me measured CC50 at 7 d, please, for this compound: `CNC(=O)N(C)c1ccc2c(c1)CN(c1nnc(Cc3ccc(-n4cccn4)cc3)s1)CC2`
Result: > 50 µM

Ask: Return reported CC50 at 7 d. Input compound: `CNC(=O)N(C)c1ccc2c(c1)CN(c1noc(Cc3ccc(-n4cccn4)cc3)n1)CC2`
Result: 44.4 µM

Ask: Respond only with CC50 at 7 d recorded for `NC(=O)Nc1ccc2c(c1)CN(c1ncc(Cc3ccc(-c4ncccn4)cc3)s1)CC2`
Result: > 10.4 µM

Ask: Identify CC50 at 7 d associated with the compound `CCOc1ccc(Cc2cnc(N3CCc4ccc(N(C)C(N)=O)cc4C3)s2)cc1`
Result: > 50 µM

###

- System: human cytomegalovirus (HCMV)
- assay explanation: Antiviral activity against human cytomegalovirus (HCMV) in MRC5 cells
- Format: cell-based
- run conditions: Human betaherpesvirus 5, 168 h; MRC5 cells, MOI 0.01 IU per cell, 7 days post infection, mCherry positive cells
Each entry below lists one item and its recorded pIC50 value.
When answering, recall that pIC50 equals minus log10 of the concentration in mol/L, and write that number alone.

Example cases with answers are listed next.
Ask: Specify reported pIC50 for the compound shown: `CN1CC(Oc2ccc(Cc3cnc(N4CCc5ccc(NC(N)=O)cc5C4)s3)cc2)C1`
Result: 5.47

Ask: Respond only with pIC50 recorded for `NC(=O)Nc1ccc2c(c1)CN(c1ncc(Cc3ccc(N4CCOC4=O)cc3)s1)CC2`
Result: 5.24

Ask: Identify measured pIC50 associated with `CNC(=O)N(C)c1ccc2c(c1)CN(c1nnc(Cc3ccc(-n4cccn4)cc3)s1)CC2`
Result: 5.37

Ask: Item `CCOc1ccc(Cc2cnc(N3CCc4ccc(N(C)C(N)=O)cc4C3)s2)cc1` : provide pIC50
Result: 5.69

Ask: Give pIC50 for the following compound: `CN(C)C(=O)N(C)c1ccc2c(c1)CN(c1ncc(Cc3ccc(-n4cccn4)cc3)s1)CC2`
Result: 5.94

More entries:
Ask: In one line, give reported pIC50 of the entry `CN(C)C(=O)Nc1ccc2c(c1)CN(c1ncc(Cc3ccc(-n4cccn4)cc3)s1)CC2` .
Result: 6.27

Ask: Give a short answer stating reported pIC50 for `CN(C(N)=O)c1ccc2c(c1)CN(c1ncc(Cc3ccc(-c4ncccn4)cc3)s1)CC2` .
Result: 5.83

Ask: Supply pIC50 value. Item: `CNC(=O)Nc1ccc2c(c1)CN(c1ncc(Cc3ccc(-n4cccn4)cc3)s1)CC2`
Result: 5.93

Where these numbers come from: patent US20240109883A1
